The entries below come with measured z-score values attached.
# test: MM1S cell viability effects, profiling panel, calcein-AM fluorescence, 48 h, basal (AID 1165);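 note: viability of MM1S multiple myeloma cells under basal unstimulated conditions; test concentration not given here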
# condition_notes: higher = more signal
Field format: numeric only.

Worked set:
CC(C)C(CO)N1C(=O)[C@@H]2C3C(=O)OCCC/C=C\[C@H]3OC23C=CCN(C(C)(C)C)C(=O)[C@@H]13 (some centres undefined)    0.724
C=CCC(OC(C)=O)[C@@H]1[C@@H](N(Cc2cccc3ccccc23)C(=O)Cc2ccc(F)cc2)c2cc(OCCCO)ccc2N1C(=O)c1ccc2ccccc2n1 (some centres undefined)    0.866
CC(C)N1C(=O)C[C@@](C(=O)NCCCN(C)C)(c2ccc([N+](=O)[O-])cc2)[C@H]1c1ccc(CO)cc1    -0.367

# ---- query molecule ----
z-score in this record for [N-]=[N+]=NCc1ccccc1[C@@H]1OC(c2ccc(OCCCO)cc2)=N[C@]1(CCS(=O)(=O)c1ccccc1)C(=O)NCC(O)CO (some centres undefined) : 0.481

====

# target_desc: Epidermal growth factor receptor (Homo sapiens) (UniProt P00533)
# Sequence (P00533 whole entry, looked up): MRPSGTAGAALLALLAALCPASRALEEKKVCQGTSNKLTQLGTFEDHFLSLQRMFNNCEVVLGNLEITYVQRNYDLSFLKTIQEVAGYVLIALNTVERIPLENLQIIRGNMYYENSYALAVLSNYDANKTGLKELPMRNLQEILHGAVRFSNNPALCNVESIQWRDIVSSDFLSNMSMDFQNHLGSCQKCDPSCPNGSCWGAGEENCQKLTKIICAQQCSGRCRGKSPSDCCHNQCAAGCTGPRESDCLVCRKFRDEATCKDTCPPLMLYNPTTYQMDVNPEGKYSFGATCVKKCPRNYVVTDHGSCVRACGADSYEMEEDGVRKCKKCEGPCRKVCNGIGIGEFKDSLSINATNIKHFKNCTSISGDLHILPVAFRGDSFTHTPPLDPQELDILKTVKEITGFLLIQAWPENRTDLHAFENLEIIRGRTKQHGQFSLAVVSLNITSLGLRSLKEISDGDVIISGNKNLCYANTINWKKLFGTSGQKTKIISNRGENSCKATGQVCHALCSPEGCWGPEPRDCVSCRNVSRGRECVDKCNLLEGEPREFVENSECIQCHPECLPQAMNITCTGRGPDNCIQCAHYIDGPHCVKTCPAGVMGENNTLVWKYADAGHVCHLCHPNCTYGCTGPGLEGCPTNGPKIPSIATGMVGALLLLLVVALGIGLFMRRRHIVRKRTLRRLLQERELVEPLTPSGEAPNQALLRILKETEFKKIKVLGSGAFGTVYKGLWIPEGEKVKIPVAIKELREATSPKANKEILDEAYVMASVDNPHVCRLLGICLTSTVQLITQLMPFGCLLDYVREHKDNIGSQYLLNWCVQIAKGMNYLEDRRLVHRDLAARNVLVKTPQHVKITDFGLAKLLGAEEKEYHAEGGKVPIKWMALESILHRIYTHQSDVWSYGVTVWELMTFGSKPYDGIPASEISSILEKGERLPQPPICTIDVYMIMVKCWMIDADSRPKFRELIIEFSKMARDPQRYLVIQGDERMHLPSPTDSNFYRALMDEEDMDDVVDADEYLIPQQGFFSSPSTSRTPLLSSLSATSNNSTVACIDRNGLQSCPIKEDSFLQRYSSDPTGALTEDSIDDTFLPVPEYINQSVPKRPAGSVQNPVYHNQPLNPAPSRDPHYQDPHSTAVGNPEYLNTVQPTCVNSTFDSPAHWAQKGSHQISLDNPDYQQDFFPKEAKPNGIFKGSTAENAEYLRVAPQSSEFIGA
# test: EGFR binders on small-molecule microarrays, primary screen, biochemical, small-molecule microarray, 635 nm fluorescence (AID 1104);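 note: score merges 667 nm emission intensity with spot signal to noise over triplicate slides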
# condition_notes: EGFR binding, higher = more signal
The entries below come with measured composite z-score values attached.
Field format: numeric only.

CC(C)C(=C=CC[C@H](O)c1cccc(OCCO)c1)C[C@H](O)c1cc(Cl)cc(Cl)c1O    -0.388
O=C1O[C@H](c2ccccc2)[C@H](c2ccccc2)N2[C@H]1[C@@H](C(=O)N1CCN(c3ncccn3)CC1)[C@]1(C(=O)Nc3ccc(C#CC4(O)CCCCCC4)cc31)[C@H]2c1ccc(OCCO)cc1    1.38
CC(C)OC(=O)C=C1C[C@@H](c2ccc(C(F)(F)F)cc2)O[C@@H](c2ccc(C(F)(F)F)cc2)O1    -0.765
O=C1OCC=C[C@H]2OC34C=CCN(Cc5ccccc5)C(=O)[C@H]3N(CCCCCCO)C(=O)[C@@H]4[C@@H]12 (some centres undefined)    -0.825
COCCCNC(=O)[C@@]1(Cc2ccccc2N=[N+]=[N-])N=C(c2ccc(OCCCO)cc2)O[C@H]1c1ccccc1    -0.338

composite z-score in this record for `CC(C)N1C(=O)C[C@@](C(=O)NCCCN(C)C)(c2ccc([N+](=O)[O-])cc2)[C@H]1c1ccc(CO)cc1` : -0.496

composite z-score in this record for `COC(=O)[C@@]1(Cc2ccc(F)cc2)[C@H]2c3cc(C(=O)N(C)C)n(CCc4ccc(O)c(OC)c4)c3C[C@H]2CN1C(=O)c1ccccc1` : 1.45

composite z-score in this record for `COc1ccc([Si](C)(C)[C@@H]2[C@@H](CC(=O)N(CCO)Cc3ccccc3)O[C@]3(C(=O)N(Cc4cccc(N5CCOC5=O)c4)c4ccccc43)[C@H]2C)cc1` : 0.41

composite z-score in this record for `Cc1ccc(S[C@]2(C(=O)NCCCN(C)C)CC(=O)N(C3CCCCC3)[C@@H]2c2ccc(CO)cc2)cc1` : -0.674

====

# Tested on: Human papillomavirus type 1a E7 protein (residues 1-88)
# test: HPV1a E7 small-molecule binders, primary screen, biochemical, small-molecule microarray, residues 1-88, 635 nm (AID 1129)
# condition_notes: small-molecule microarray binding, fluorescence 635 nm; higher = more signal
Mark rule met for reported composite z-score of 0.03 or greater; mark rule not met for anything smaller.

Completed entries (count: 4):
O=c1n(-c2ccccc2)c(=O)n2n1CC(COc1ccccc1)=C([C@H](O)CCc1ccccc1)[C@@H]2CO    rule met
CN(C)C(=O)[C@@]1(Cc2ccccc2CN=[N+]=[N-])N=C(c2ccc(OCCCO)cc2)O[C@H]1c1ccccc1CN=[N+]=[N-]    rule met
O=C1O[C@H](c2ccccc2)[C@H](c2ccccc2)N2[C@H]1[C@@H](C(=O)Nc1nc3ccccc3s1)[C@]1(C(=O)Nc3ccc(C#CCCO)cc31)[C@H]2c1ccc(O)cc1    rule met
COc1ccc(C(O)C2C=CC3C(=O)N(c4ccccc4)C(=O)C3N2Nc2ccc([N+](=O)[O-])cc2)cc1 (stereo unspecified)    rule met

Does composite z-score meet or surpass 0.03 for CCCCC(O)C1C=CC2C(=O)N(c3ccccc3)C(=O)C2N1Nc1ccc(C(C)C)cc1 (stereo unspecified) ?
rule met

Does composite z-score meet or surpass 0.03 for O=C1NC(=O)C2C1C=CC(C(O)c1ccco1)N2Nc1ccccn1 (stereo unspecified) ?
rule not met
